Below, each entry is listed with its recorded TOP blocking (SHP-1 recruitment).
- System Under Test: Full length human SIRPα v1 with beta-gal fragment (ED) at its C-terminal, in K562 cells (human, UniProt P78324 31-504)
- Sequence (P78324 31-504): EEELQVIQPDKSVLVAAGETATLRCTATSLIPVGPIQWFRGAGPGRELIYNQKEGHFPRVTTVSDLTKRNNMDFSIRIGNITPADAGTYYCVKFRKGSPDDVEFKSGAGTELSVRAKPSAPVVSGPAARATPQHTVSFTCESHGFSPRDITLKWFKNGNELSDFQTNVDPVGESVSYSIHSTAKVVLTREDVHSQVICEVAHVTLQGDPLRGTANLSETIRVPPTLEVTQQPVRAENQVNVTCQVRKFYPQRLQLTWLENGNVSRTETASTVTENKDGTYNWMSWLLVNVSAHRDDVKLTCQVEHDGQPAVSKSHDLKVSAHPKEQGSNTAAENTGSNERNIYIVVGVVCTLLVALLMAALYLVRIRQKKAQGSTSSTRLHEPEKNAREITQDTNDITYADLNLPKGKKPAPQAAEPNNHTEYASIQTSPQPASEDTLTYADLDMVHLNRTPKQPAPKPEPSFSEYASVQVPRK
- Assay Details: cell-based or functional assay
Measured Endpoint: TOP blocking (SHP-1 recruitment) (%)

• Anti-SIRPα antibody C25 (antibody, V domains shown, Mouse variable regions; also called 025c; 025) VH: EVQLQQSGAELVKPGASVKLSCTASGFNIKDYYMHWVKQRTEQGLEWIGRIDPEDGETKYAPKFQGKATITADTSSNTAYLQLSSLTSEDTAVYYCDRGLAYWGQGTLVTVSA VL: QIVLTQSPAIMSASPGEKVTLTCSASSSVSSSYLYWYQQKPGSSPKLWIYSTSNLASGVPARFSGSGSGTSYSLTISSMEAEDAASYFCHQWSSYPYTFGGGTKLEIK = 84.5
• Anti-SIRPα antibody C42 (antibody, human IgG4, V domains shown, Mouse variable regions; also called 042c) VH: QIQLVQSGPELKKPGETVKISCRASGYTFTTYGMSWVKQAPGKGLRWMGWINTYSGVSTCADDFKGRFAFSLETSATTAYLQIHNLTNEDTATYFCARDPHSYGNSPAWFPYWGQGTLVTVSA VL: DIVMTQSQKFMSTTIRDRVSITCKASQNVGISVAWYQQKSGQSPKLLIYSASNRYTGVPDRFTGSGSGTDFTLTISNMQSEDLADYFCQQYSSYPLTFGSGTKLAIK = 70
• Anti-SIRPα antibody C73 (antibody, human IgG4, V domains shown, Mouse variable regions; also called 073c; 073C) VH: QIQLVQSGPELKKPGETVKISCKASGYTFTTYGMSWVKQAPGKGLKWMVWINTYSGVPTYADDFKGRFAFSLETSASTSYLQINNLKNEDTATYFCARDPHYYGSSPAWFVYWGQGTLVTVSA VL: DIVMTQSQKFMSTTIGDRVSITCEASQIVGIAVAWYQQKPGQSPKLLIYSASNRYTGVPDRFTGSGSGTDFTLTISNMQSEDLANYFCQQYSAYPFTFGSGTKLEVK = 51.2
• Anti-SIRPα antibody C59 (antibody, V domains shown, Mouse variable regions; tested as purified chimeric antibody; also called 059c) VH: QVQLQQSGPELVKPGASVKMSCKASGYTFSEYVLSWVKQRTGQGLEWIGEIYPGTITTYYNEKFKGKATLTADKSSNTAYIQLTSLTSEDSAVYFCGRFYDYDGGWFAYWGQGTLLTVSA VL: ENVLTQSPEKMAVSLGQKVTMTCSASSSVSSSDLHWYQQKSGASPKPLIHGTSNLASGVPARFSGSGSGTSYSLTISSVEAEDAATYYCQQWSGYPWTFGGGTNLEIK = 66.9
• Anti-SIRPα antibody C15 (antibody, V domains shown, Mouse variable regions; tested as purified chimeric antibody; also called 015c) VH: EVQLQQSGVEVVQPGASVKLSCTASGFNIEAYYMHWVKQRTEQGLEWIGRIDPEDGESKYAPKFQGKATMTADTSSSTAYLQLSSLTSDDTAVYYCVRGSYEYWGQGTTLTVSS VL: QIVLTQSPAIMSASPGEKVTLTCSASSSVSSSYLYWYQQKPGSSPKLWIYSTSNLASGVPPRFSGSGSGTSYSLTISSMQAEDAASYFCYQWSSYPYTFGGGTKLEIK = 73.5
